The following compounds are shown together with reported pEC50 values.
- targetSystem: UniProtKB Q16740
- protocolNotes: activating ClpP hydrolysis of FITC-casein (fluorescence kinetic detection)
- conditionSummary: hClpP 1 μM, FITC-Casein 4 μM, 37° C.
pEC50: −log10 of the molar value.

For orientation, consider the following solved cases.
>  <chemicalString>
O=c1c2c(n3ccnc3n1Cc1ccc(Cl)cc1)CCN(Cc1cccc(F)c1)C2

>  <pEC50>
> 6.00

$$$$
>  <chemicalString>
Cc1ccc(Cn2c(=O)c3c(c4cccnc42)CCN(Cc2cccc(Cl)c2)C3)cc1

>  <pEC50>
> 6.00

$$$$
>  <chemicalString>
N#Cc1cccc(CN2CCc3c(c(=O)n(Cc4ccc(F)cc4F)c4nccn34)C2)c1

>  <pEC50>
> 6.00

$$$$

Exercise: Requested read-out: pEC50. Entry: `O=c1c2c(n3ncnc3n1Cc1ccc(C(F)(F)F)cc1)CCN(Cc1ccccc1)C2`
Key: 5.00 to 6.00

###

- targetSystem: hClpP (Homo sapiens)
- protocolNotes: activating ClpP hydrolysis of FITC-casein (fluorescence kinetic detection)
- conditionSummary: hClpP 1 μM, FITC-Casein 4 μM, 37° C.
metric: EC50

For orientation, consider the following solved cases.
>  <chemicalString>
Cc1cccc(CN2CCc3c(c(=O)n(Cc4ccc(F)cc4F)c4nccn34)C2)c1

>  <EC50>
< 1 µM

$$$$
>  <chemicalString>
Cc1cccc(CN2CCc3c(c(=O)n(Cc4ccc(F)cc4)c4nccn34)C2)c1

>  <EC50>
< 1 µM

$$$$
>  <chemicalString>
O=c1c2c(n3cncc3n1Cc1ccc(C(F)(F)F)cc1)CCN(Cc1ccccc1)C2

>  <EC50>
1 to 10 µM

$$$$

From here, focus on the item given below.
Exercise: Requested read-out: EC50. Entry: `O=c1c2c(c3cccnc3n1Cc1ccc(Cl)cc1)CCN(Cc1cccc(Br)c1)C2`
Key: < 1 µM

###

The following compounds are shown together with reported pEC50 values.
- targetSystem: hClpP (Homo sapiens)
- protocolNotes: activating ClpP hydrolysis of FITC-casein (fluorescence kinetic detection)
- conditionSummary: hClpP 1 μM, FITC-Casein 4 μM, 37° C.
pEC50: −log10 of the molar value.

>  <chemicalString>
COc1ccccc1Cn1c(=O)c2c(c3cccnc31)CCN(Cc1ccccc1)C2

>  <targetSystem>
hClpP (Homo sapiens)

>  <pEC50>
5.00 to 6.00

$$$$
>  <chemicalString>
O=c1c2c(n3ccnc3n1Cc1ccc(F)cc1F)CCN(Cc1cccc(Cl)c1)C2

>  <targetSystem>
hClpP (Homo sapiens)

>  <pEC50>
> 6.00

$$$$
>  <chemicalString>
Cc1ccc(Cn2c(=O)c3c(n4ccnc24)CCN(Cc2cccc(F)c2)C3)cc1

>  <targetSystem>
hClpP (Homo sapiens)

>  <pEC50>
> 6.00

$$$$
>  <chemicalString>
O=c1c2c(n3nccc3n1Cc1ccc(C(F)(F)F)cc1)CCN(Cc1ccccc1)C2

>  <targetSystem>
hClpP (Homo sapiens)

>  <pEC50>
5.00 to 6.00

$$$$
>  <chemicalString>
O=c1c2c(n3cccc3n1Cc1ccc(Cl)cc1)CCN(Cc1cccc(Cl)c1)C2

>  <targetSystem>
hClpP (Homo sapiens)

>  <pEC50>
> 6.00

$$$$

Exercise: Requested read-out: pEC50. Entry: `Cc1cccc(CN2CCc3c(c(=O)n(Cc4ccccc4)c4ncccc34)C2)c1`
Key: > 6.00

Exercise: `COc1ccc(Cn2c(=O)c3c(c4cccnc42)CCN(Cc2cccc(Cl)c2)C3)cc1` ?
Key: > 6.00

Exercise: `Cn1nccc1Cn1c(=O)c2c(c3cccnc31)CCN(Cc1ccccc1)C2` ?
Key: 4.00 to 5.00

Exercise: `O=c1c2c(n3ccnc3n1Cc1ccc3c(c1)OCO3)CCN(Cc1cccc(Cl)c1)C2` ?
Key: 5.00 to 6.00

Exercise: `O=c1c2c(c3cccnc3n1Cc1cc(Cl)ccn1)CCN(Cc1ccccc1)C2` ?
Key: 4.00 to 5.00

Exercise: `COc1ccc(CN2CCc3c(c(=O)n(Cc4ccccc4)c4ncccc34)C2)cc1` ?
Key: 5.00 to 6.00

Exercise: `O=c1c2c(c3cccnc3n1Cc1ccc(F)cc1)CCN(Cc1cccc(F)c1)C2` ?
Key: > 6.00

###

The following molecules are shown together with reported EC50 values.
- targetSystem: hClpP (Homo sapiens, UniProt Q16740)
- Sequence (Q16740 57-277): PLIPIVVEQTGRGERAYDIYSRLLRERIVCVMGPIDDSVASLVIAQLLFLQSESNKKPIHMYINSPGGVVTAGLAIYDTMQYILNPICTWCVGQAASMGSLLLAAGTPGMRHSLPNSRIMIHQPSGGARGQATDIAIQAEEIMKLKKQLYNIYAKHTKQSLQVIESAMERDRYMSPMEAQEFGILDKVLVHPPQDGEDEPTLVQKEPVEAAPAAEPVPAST
- protocolNotes: activating ClpP hydrolysis of FITC-casein (fluorescence kinetic detection)
- conditionSummary: hClpP 1 μM, FITC-Casein 4 μM, 37° C.

Exercise: Requested read-out: EC50. Entry: Cc1ccc(Cn2c(=O)c3c(n4ccnc24)CCN(Cc2cccc(C#N)c2)C3)cc1 [Compound I-136]
Key: < 1000 nM

Exercise: N#Cc1cccc(CN2CCc3c(c(=O)n(Cc4ccccc4)c4nccn34)C2)c1 [Compound I-111] ?
Key: < 1000 nM

Exercise: O=c1c2c(n3ccnc3n1Cc1ccc(F)cc1F)CCN(Cc1cccc(F)c1)C2 [Compound I-123] ?
Key: < 1000 nM

Exercise: O=c1c2c(c3cccnc3n1Cc1ccccc1)CCN(Cc1cccc(Cl)c1)C2 [Compound I-13] ?
Key: < 1000 nM

Exercise: N#Cc1cccc(CN2CCc3c(c(=O)n(Cc4ccc(Cl)cc4)c4ccnn34)C2)c1 [Compound I-163] ?
Key: 1000 to 10000 nM

###

- targetSystem: hClpP (Homo sapiens)
- protocolNotes: activating ClpP hydrolysis of FITC-casein (fluorescence kinetic detection)
- conditionSummary: hClpP 1 μM, FITC-Casein 4 μM, 37° C.
metric: EC50

For orientation, consider the following solved cases.
>  <compound>
N#Cc1cccc(CN2CCc3c(c(=O)n(Cc4ccc(Cl)cc4)c4cncn34)C2)c1 [Compound I-167]

>  <measuredResult>
1000 to 10000 nM

$$$$
>  <compound>
N#Cc1cccc(CN2CCc3c(c(=O)n(Cc4ccccc4)c4ncccc34)C2)c1 [Compound I-82]

>  <measuredResult>
< 1000 nM

$$$$
>  <compound>
O=c1c2c(n3ncnc3n1Cc1ccc(Cl)cc1)CCN(Cc1ccccc1)C2 [Compound I-152]

>  <measuredResult>
1000 to 10000 nM

$$$$
>  <compound>
COc1ccc(Cn2c(=O)c3c(n4ccnc24)CCN(Cc2cccc(F)c2)C3)cc1 [Compound I-143]

>  <measuredResult>
< 1000 nM

$$$$

Exercise: Look up EC50 with hClpP (Homo sapiens) for this compound: O=c1c2c(c3ccsc3n1Cc1ccc(C(F)(F)F)cc1)CCN(Cc1ccccc1)C2 [Compound I-104]
Key: < 1000 nM

Exercise: O=c1c2c(n3nccc3n1Cc1ccc(Cl)cc1)CCN(Cc1cccc(Cl)c1)C2 [Compound I-162] ?
Key: 1000 to 10000 nM

Exercise: Cc1ncc(CN2CCc3c(c(=O)n(Cc4ccccc4)c4ncccc34)C2)s1 [Compound I-35] ?
Key: 10000 to 100000 nM

Exercise: O=c1c2c(c3cccnc3n1Cc1ccccc1F)CCN(Cc1ccccc1)C2 [Compound I-40] ?
Key: 1000 to 10000 nM

###

- targetSystem: hClpP (Homo sapiens, UniProt Q16740)
- protocolNotes: activating ClpP hydrolysis of FITC-casein (fluorescence kinetic detection)
- conditionSummary: hClpP 1 μM, FITC-Casein 4 μM, 37° C.
The following compounds are shown together with reported EC50 values.

>  <compound>
O=c1c2c(c3cccnc3n1Cc1ccccc1)CCN(Cc1cc(Cl)ccn1)C2 [Compound I-30]

>  <EC50>
10 to 100 µM

$$$$
>  <compound>
CCc1ccc(CN2CCc3c(c(=O)n(Cc4ccccc4)c4ncccc34)C2)cc1 [Compound I-22]

>  <EC50>
1 to 10 µM

$$$$
>  <compound>
O=c1c2c(n3nccc3n1Cc1ccc(Cl)cc1)CCN(Cc1ccccc1)C2 [Compound I-161]

>  <EC50>
1 to 10 µM

$$$$
>  <compound>
Cn1cnc(CN2CCc3c(c(=O)n(Cc4ccccc4)c4ncccc34)C2)c1 [Compound I-32]

>  <EC50>
10 to 100 µM

$$$$
>  <compound>
O=c1c2c(c3cccnc3n1Cc1ccc(Cl)cc1)CCN(Cc1cccc(F)c1)C2 [Compound I-74]

>  <EC50>
< 1 µM

$$$$
>  <compound>
N#Cc1cccc(CN2CCc3c(c(=O)n(Cc4ccc(C(F)(F)F)cc4)c4ncccc34)C2)c1 [Compound I-83]

>  <EC50>
< 1 µM

$$$$
>  <compound>
O=c1c2c(c3cccnc3n1Cc1ccccc1)CCN(Cc1ccc(Br)cc1)C2 [Compound I-20]

>  <EC50>
1 to 10 µM

$$$$
>  <compound>
O=c1c2c(c3cccnc3n1Cc1ccc(Cl)cc1)CCN(Cc1ccccc1)C2 [Compound I-53]

>  <EC50>
< 1 µM

$$$$

Exercise: Requested read-out: EC50. Entry: COc1ccc(Cn2c(=O)c3c(n4ccnc24)CCN(Cc2cccc(C)c2)C3)cc1 [Compound I-145]
Key: < 1 µM

Exercise: Cn1ccc(Cn2c(=O)c3c(c4cccnc42)CCN(Cc2ccccc2)C3)n1 [Compound I-58] ?
Key: 10 to 100 µM

Exercise: O=c1c2c(n3ccnc3n1Cc1ccc3c(c1)OCCO3)CCN(Cc1cccc(Cl)c1)C2 [Compound I-148] ?
Key: 1 to 10 µM

Exercise: O=c1c2c(c3cocc3n1Cc1ccc(C(F)(F)F)cc1)CCN(Cc1ccccc1)C2 [Compound I-101] ?
Key: < 1 µM

Exercise: COc1ccc(Cn2c(=O)c3c(c4cccnc42)CCN(Cc2cccc(F)c2)C3)cc1 [Compound I-99] ?
Key: < 1 µM

Exercise: O=c1c2c(c3cccnc3n1Cc1ccccc1)CCN(Cc1cccnc1)C2 [Compound I-28] ?
Key: 10 to 100 µM
